# Test System: T1, DENV-2 nonstructural protein 1 (NS1), recombinant (Dengue virus 2, strain …, UniProt P29990)
# T1 construct: also called DENV-2 NS1; NS1 from DENV-2; source: bought: Native Antigen Company (recombinant)
# Protocol Description: SPR
# Recorded Conditions: both partners purified
pKd: −log10 of the molar value.
Outcome Measure: pKd

1) sdAb DC7 (VHH, source: E. coli Turner (DE3), pET22b, periplasmic, purified (Ni-Sepharose, SEC)) VHH: EVQLQASGGGSVQAGGSLRLSCAHSSITVPDYTIGWYRRAPGKGGEEVSLISMHGGRTWYAGSVKGRFAISRDSVKNTVYLQMNNLKPEDTDIYYCGGTTFGLAAAPNEYDSWGQGSQVTVSS	9.22
2) sdAb DD7 (VHH, source: E. coli Turner (DE3), pET22b, periplasmic, purified (Ni-Sepharose, SEC)) VHH: EVQLVQSGGGSVQAGGSLRLSCAHSSITVPDYTIGWFRRAPGKGGEEVSLISMHGGRSWYAGSVKGRFAISRDSVKNTVYLQMNNLKPEDTDIYYCGGTTFGLAAAPNEYDSWGQGSQVTVSS	8.82

These measurements were taken from paper PMC6308234.
